// log2 fold change lookup, one value per entry
- subject of test: YWHAZ (UniProt E7ESK7)
- assay procedure: log2 fold change, soluble protein after heating vs DMSO (PISA); higher = thermal stabilisation; K562 cells, 10 uM, 30 min; active = over 0.2 and 3.5 SD of the protein, either way, in both replicates (recomputed)
Of roughly 7,900 targets only a part is listed; those with a hit were picked by preference. About 0.6% of all pairs of compound and target were hits.
readout type: log2 fold change

[
  {
    "compound": "Cc1ccc(Sc2cncc3sc(C(N)=O)cc23)cc1",
    "readout type": "log2 fold change",
    "recorded result": -0.019
  },
  {
    "compound": "COc1cc2nc(-c3cc(F)ccc3O)nc(N[C@@H]3CNC[C@H]3C(C)(C)O)c2cc1OC",
    "readout type": "log2 fold change",
    "recorded result": 0.028
  },
  {
    "compound": "C[C@@H](Oc1cc(-c2cnn(C3CCNCC3)c2)cnc1N)c1c(Cl)ccc(F)c1Cl [crizotinib]",
    "readout type": "log2 fold change",
    "recorded result": 0.081
  },
  {
    "compound": "Cn1cc(-c2ccc3nnc(C(F)(F)c4ccc5ncccc5c4)n3n2)cn1",
    "readout type": "log2 fold change",
    "recorded result": -0.007
  },
  {
    "compound": "CC[C@H](C)[C@H](NC(=O)[C@H]([C@@H](C)CC)N(C)C(C)=O)C(=O)N[C@H](C(=O)N[C@@H](CC(C)C)C(=O)[C@@]1(C)CO1)[C@@H](C)O [epoxomicin]",
    "readout type": "log2 fold change",
    "recorded result": -0.075
  },
  {
    "compound": "CC(C)N(C[C@H]1O[C@@H](n2cnc3c(N)ncnc32)[C@H](O)[C@@H]1O)[C@H]1C[C@@H](CCc2nc3cc(C(C)(C)C)ccc3[nH]2)C1 [pinometostat]",
    "readout type": "log2 fold change",
    "recorded result": -0.035
  },
  {
    "compound": "CC(C)(O)CC(=O)NCCn1ccc2ncnc(Nc3ccc(Oc4cccc(C(F)(F)F)c4)c(Cl)c3)c21",
    "readout type": "log2 fold change",
    "recorded result": 0.021
  },
  {
    "compound": "FC(F)(F)c1ccc(/C=C/c2nc(COc3ccc(CCCCn4ccnn4)cc3)co2)cc1 [mubritinib]",
    "readout type": "log2 fold change",
    "recorded result": 0.11
  }
]

====

- subject of test: ZNF580 (UniProt Q9UK33)
- Sequence (Q9UK33 whole entry, looked up): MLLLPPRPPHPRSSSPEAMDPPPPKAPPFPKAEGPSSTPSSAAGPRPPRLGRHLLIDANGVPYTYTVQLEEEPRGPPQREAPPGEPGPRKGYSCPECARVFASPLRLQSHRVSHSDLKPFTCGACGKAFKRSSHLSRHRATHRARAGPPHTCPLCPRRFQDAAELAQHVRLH
- assay procedure: log2 fold change, soluble protein after heating vs DMSO (PISA); higher = thermal stabilisation; K562 cells, 10 uM, 30 min; active = over 0.2 and 3.5 SD of the protein, either way, in both replicates (recomputed)
The full data set covers some 7,900 targets. This sample favours those with a hit. About 0.6% of all pairs of compound and target were hits.

[
  {
    "structure string": "CN1CCc2c(c3ccccc3n2Cc2ccc(C(=O)NO)cc2)C1",
    "log2 fold change": -0.08
  },
  {
    "structure string": "Cc1cc(Nc2cc(N3CCN(C)CC3)nc(Sc3ccc(NC(=O)C4CC4)cc3)n2)n[nH]1",
    "log2 fold change": -0.138
  },
  {
    "structure string": "NCC(=O)Nc1ccc(-n2nc(C(F)(F)F)cc2-c2ccc3c(ccc4ccccc43)c2)cc1",
    "log2 fold change": -0.038
  },
  {
    "structure string": "CN1CCN(c2nc(C3=C(c4c[nH]c5ccccc45)C(=O)NC3=O)c3ccccc3n2)CC1",
    "log2 fold change": 0.039
  },
  {
    "structure string": "c1cn2cc(-c3ccc4cn[nH]c4c3)nc(Nc3ccc(N4CCOCC4)cc3)c2n1",
    "log2 fold change": 0.004
  },
  {
    "structure string": "COC(=O)N[C@@H](C)CNc1nccc(-c2cn(C(C)C)nc2-c2cc(Cl)cc(NS(C)(=O)=O)c2F)n1",
    "log2 fold change": 0.143
  },
  {
    "structure string": "O=C(Nc1nc2ccccc2n1CCN1CCOCC1)c1cccc([N+](=O)[O-])c1",
    "log2 fold change": 0.051
  },
  {
    "structure string": "Cc1ccc(NC(=O)c2cccc(C(C)(C)C#N)c2)cc1Nc1ccc2ncn(C)c(=O)c2c1",
    "log2 fold change": -0.174
  },
  {
    "structure string": "CCn1cc(-c2ccnc3[nH]c(-c4cccc(CN(C)C)c4)cc23)c(-c2ccc(NC(=O)N(C)C)cc2)n1",
    "log2 fold change": 0.092
  },
  {
    "structure string": "CNCc1ccc(-c2[nH]c3cc(F)cc4c3c2CCNC4=O)cc1",
    "log2 fold change": 0.136
  },
  {
    "structure string": "COC(=O)[C@H](CCSC)NC(=O)c1ccc(NC[C@@H](N)CS)cc1-c1ccccc1",
    "log2 fold change": -0.082
  },
  {
    "structure string": "Cc1cccc(CC(=O)N2CCc3c2ccc(-c2cn(C)c4ncnc(N)c24)c3F)n1",
    "log2 fold change": -0.045
  },
  {
    "structure string": "CCCS(=O)(=O)Nc1ccc(F)c(C(=O)c2c[nH]c3ncc(-c4ccc(Cl)cc4)cc23)c1F",
    "log2 fold change": 0.042
  },
  {
    "structure string": "Cc1ccc2c(=O)c3ccccc3n(CCCN)c2c1C",
    "log2 fold change": -0.196
  },
  {
    "structure string": "Cc1nc(Nc2ncc(C(=O)Nc3c(C)cccc3Cl)s2)cc(N2CCN(CCO)CC2)n1",
    "log2 fold change": -0.085
  },
  {
    "structure string": "C[C@@H](Oc1cc(-c2cnn(C3CCNCC3)c2)cnc1N)c1c(Cl)ccc(F)c1Cl",
    "log2 fold change": 0.164
  },
  {
    "structure string": "O=C(CCCCCCC(=O)Nc1ccccc1)NO",
    "log2 fold change": -0.064
  }
]

====

- subject of test: YWHAZ (UniProt P63104)
- Sequence (P63104 whole entry, looked up): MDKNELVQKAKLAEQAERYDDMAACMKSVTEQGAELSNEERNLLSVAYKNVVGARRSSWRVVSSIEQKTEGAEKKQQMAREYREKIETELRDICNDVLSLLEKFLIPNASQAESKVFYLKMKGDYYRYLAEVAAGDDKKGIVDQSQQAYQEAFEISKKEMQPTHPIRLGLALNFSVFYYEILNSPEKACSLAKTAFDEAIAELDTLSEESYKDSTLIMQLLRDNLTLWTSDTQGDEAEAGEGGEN
- assay procedure: log2 fold change, soluble protein after heating vs DMSO (PISA); higher = thermal stabilisation; K562 cells, 10 uM, 30 min; active = over 0.2 and 3.5 SD of the protein, either way, in both replicates (recomputed)
The full data set covers some 7,900 targets. This sample favours those with a hit. About 0.6% of all pairs of compound and target were hits.
Hi all, reminder that labels come from log2 fold change, split as low class = under -0.01, middle class = from -0.01 up to 0.03, high class = 0.03 and over

[
  {
    "compound": "CC[C@H](C)n1cc(C)c2c(C(=O)NCc3c(C)cc(C)[nH]c3=O)cc(-c3ccc(N4CCNCC4)nc3)cc21",
    "cat": "middle class"
  },
  {
    "compound": "CC1=C(C(=O)Nc2cc3cn[nH]c3cc2F)C(c2ccc(C(F)(F)F)cc2)CC(=O)N1 (stereo not drawn)",
    "cat": "high class"
  },
  {
    "compound": "Cc1cc(SCc2sc(-c3ccc(C(F)(F)F)cc3)nc2C)ccc1OCC(=O)O",
    "cat": "middle class"
  },
  {
    "compound": "C[C@@H](Oc1cc(-c2cnn(C3CCNCC3)c2)cnc1N)c1c(Cl)ccc(F)c1Cl",
    "cat": "middle class"
  },
  {
    "compound": "Cc1cccc(CC(=O)N2CCc3c2ccc(-c2cn(C)c4ncnc(N)c24)c3F)n1",
    "cat": "middle class"
  },
  {
    "compound": "O=C1c2ccccc2-c2n[nH]c3cccc1c23",
    "cat": "high class"
  },
  {
    "compound": "NC1(c2ccc(-c3nc4ccn5c(=O)[nH]nc5c4cc3-c3ccccc3)cc2)CCC1",
    "cat": "high class"
  },
  {
    "compound": "c1cn2cc(-c3ccc4cn[nH]c4c3)nc(Nc3ccc(N4CCOCC4)cc3)c2n1",
    "cat": "middle class"
  },
  {
    "compound": "Cc1ccc(NC(=O)c2cccc(N(C)C)c2)cc1NC(=O)c1ccc(O)cc1",
    "cat": "middle class"
  },
  {
    "compound": "Cc1cn(-c2cc(NC(=O)c3ccc(C)c(Nc4nccc(-c5cccnc5)n4)c3)cc(C(F)(F)F)c2)cn1",
    "cat": "high class"
  },
  {
    "compound": "CCn1cc(-c2ccnc3[nH]c(-c4cccc(CN(C)C)c4)cc23)c(-c2ccc(NC(=O)N(C)C)cc2)n1",
    "cat": "low class"
  },
  {
    "compound": "O=C1NC(=O)/C(=C\\c2ccc3nccnc3c2)S1",
    "cat": "low class"
  },
  {
    "compound": "FC(F)(F)c1ccc(/C=C/c2nc(COc3ccc(CCCCn4ccnn4)cc3)co2)cc1",
    "cat": "middle class"
  },
  {
    "compound": "CS(=O)(=O)CCNCc1ccc(-c2ccc3ncnc(Nc4ccc(OCc5cccc(F)c5)c(Cl)c4)c3c2)o1",
    "cat": "high class"
  },
  {
    "compound": "Cn1cc(-c2ccc3nnc(C(F)(F)c4ccc5ncccc5c4)n3n2)cn1",
    "cat": "low class"
  },
  {
    "compound": "O=C(Nc1cccc(Nc2ncc(Br)c(NCCc3cnc[nH]3)n2)c1)N1CCCC1",
    "cat": "middle class"
  },
  {
    "compound": "COC(=O)N[C@@H](C)CNc1nccc(-c2cn(C(C)C)nc2-c2cc(Cl)cc(NS(C)(=O)=O)c2F)n1",
    "cat": "low class"
  },
  {
    "compound": "COc1cc(C(=O)O)ccc1NC(=O)[C@@H]1N[C@@H](CC(C)(C)C)[C@](C#N)(c2ccc(Cl)cc2F)[C@H]1c1cccc(Cl)c1F",
    "cat": "low class"
  },
  {
    "compound": "CC[C@H](C)[C@H](NC(=O)[C@H]([C@@H](C)CC)N(C)C(C)=O)C(=O)N[C@H](C(=O)N[C@@H](CC(C)C)C(=O)[C@@]1(C)CO1)[C@@H](C)O",
    "cat": "high class"
  },
  {
    "compound": "Cc1ncc(-c2ccnc(Nc3ccc(S(C)(=O)=O)cc3)n2)n1C(C)C",
    "cat": "middle class"
  },
  {
    "compound": "COc1cc2nc(-c3cc(F)ccc3O)nc(N[C@@H]3CNC[C@H]3C(C)(C)O)c2cc1OC",
    "cat": "low class"
  },
  {
    "compound": "CNC(=O)c1ccccc1Nc1nc(Nc2ccc(N3CCOCC3)cc2OC)ncc1Cl",
    "cat": "low class"
  },
  {
    "compound": "CN1CCN(CCOc2cc(OC3CCOCC3)c3c(Nc4c(Cl)ccc5c4OCO5)ncnc3c2)CC1",
    "cat": "high class"
  },
  {
    "compound": "CC(=O)c1cnc2ccc(-c3cc(Cl)c(O)c(Cl)c3)nc2c1N[C@H]1CC[C@H](CN(C)C)CC1",
    "cat": "high class"
  },
  {
    "compound": "CC[C@@H]1C(=O)N(C)c2cnc(Nc3ccc(C(=O)N[C@H]4CC[C@H](N5CCN(CC6CC6)CC5)CC4)cc3OC)nc2N1C(C)C",
    "cat": "low class"
  },
  {
    "compound": "CCn1c(C(=O)N(C2CC2)C2CC2)cc2c3c(ncn3C)c(Nc3cc(C)n(C)n3)nc21",
    "cat": "middle class"
  },
  {
    "compound": "CN1CCC(CNc2ccc3ncc(-c4cccc(OC(F)(F)F)c4)n3n2)CC1",
    "cat": "high class"
  },
  {
    "compound": "O=C(CCCCCCNC(=O)c1cnc(N(c2ccccc2)c2ccccc2Cl)nc1)NO",
    "cat": "low class"
  },
  {
    "compound": "Cc1nc(Nc2ncc(C(=O)Nc3c(C)cccc3Cl)s2)cc(N2CCN(CCO)CC2)n1",
    "cat": "low class"
  },
  {
    "compound": "CN1CCc2c(c3ccccc3n2Cc2ccc(C(=O)NO)cc2)C1",
    "cat": "middle class"
  },
  {
    "compound": "O=C1NC(=O)C(c2cnc3ccccn23)=C1c1cn2c3c(cc(F)cc13)CN(C(=O)N1CCCCC1)CC2",
    "cat": "low class"
  },
  {
    "compound": "CC(C)(O)CC(=O)NCCn1ccc2ncnc(Nc3ccc(Oc4cccc(C(F)(F)F)c4)c(Cl)c3)c21",
    "cat": "middle class"
  },
  {
    "compound": "C#Cc1cccc(Nc2ncnc3cc(OCCOC)c(OCCOC)cc23)c1",
    "cat": "middle class"
  }
]
